System: HOP-92 NSCLC
assay info: NCI tumour cell line growth inhibition, 48 h
observable: TGI (µM)
Number in µM, nothing else.

Noted for COc1cc(CC(=O)c2cc3c(cc2-c2ccccc2)OCO3)cc(OC)c1OC : its TGI reads 42

Lab book: TGI of COc1ccc(OC)c(-c2cc(=O)c3cc4c(cc3[nH]2)OCO4)c1 noted as 41.3

GET /value?item= CCN(CC)CCNC(=O)C(Cl)=C1C(Cl)=C(Cl)C(Cl)=C1Cl &field=TGI returns 8.62

get_value(item= O=C(NC(Cc1ccccc1)C(=O)CCl)OCc1ccccc1 (stereo unspecified) , readout=TGI) returns 28.3

The recorded TGI for COC(=O)c1cc2c(nc1C)-c1ccccc1OS2(=O)=O is 83.2

====

System: MDA-MB-435
assay info: NCI tumour cell line growth inhibition, 48 h
observable: log10(TGI) (log10 of the value in µM)
Kindly note that the scale is log10 and the underlying TGI is in µM.

Record COc1ccc(Nc2ncccc2C(=O)NCc2cn(Cc3cccc(Oc4ccccc4)c3)nn2)c(OC)c1 , field log10(TGI): -0.15

Form field log10(TGI), entry N/C(=N\C(N)=N\c1nc2ccccc2s1)c1ccnc(Br)c1 : 0.86

// recorded log10(TGI) for COc1ccccc1[C@@H]1CCC2CC[C@@H](c3ccccc3OC)[N+]21Cc1ccccc1 (some centres not stated) : 1.02

get_value(item= COc1cc(C2c3cc4c(cc3OC(NNc3ccccc3)C2C)OCO4)cc(OC)c1O (configuration not stated) , readout=log10(TGI)) returns 0.60

Note to self: log10(TGI) recorded for Cc1nc2cc(Nc3nc(Nc4ccc(F)cc4)nc(N4CCCC4)n3)ccc2n1Cc1ccccc1 was 0.49

Lab note: O=C(Nc1ccc(Cl)cc1)c1cc2ccccc2cc1OP(=O)(O)O gave log10(TGI) of 1.51

response.value for COc1c(C)c(C/C=C(\C)CCCCO)c(OC)c2ccccc12 (field: log10(TGI)) = 2.00

Reported log10(TGI) for O=C(CBr)NCCc1c[nH]c2ccccc12 was 0.52

Measured log10(TGI), CC(=O)CC12NC(=O)N(C)N=C1N(C)C(=O)N(C)C2=O (configuration not stated) : 1.49

Value of log10(TGI) reported for the compound CCN(CC)CCNC(=O)C(Cl)=C1C(Cl)=C(Cl)C(Cl)=C1Cl is 0.82

The measured log10(TGI) associated with CN(C)CCCN=c1c2ccccc2n(C)c2[nH]c(=O)n(C)c(=O)c12 reads 1.23

Record summary for COc1ccc2c(c1)C(=O)c1c-2c(OCCN2CCCCC2)nc2ccc(OC)cc12 : reported log10(TGI) = 0.36

GET /value?item= CNC(=O)c1cc(Oc2ccc3nc(NC(=O)Nc4cc(C(F)(F)F)cc(C(F)(F)F)c4)sc3c2)ccn1 &field=log10(TGI) returns 0.43

====

Tested on: HOP-62 NSCLC
assay info: NCI tumour cell line growth inhibition, 48 h; in the data active means GI50 below about 0.43 µM; inactive means the rest
Mark one answer only. Choices: yes (1) for active, no (0) for inactive

[ask] Fill in: this test's call for Cn1cc(-c2ccc3nnc(C(F)(F)c4ccc5ncccc5c4)n3n2)cn1 is ___
[reply] no (0)

[ask] Short answer needed: outcome of this test for CCN(CC)CC(O)c1cc(-c2ccc(Cl)cc2)nc2cc(Cl)ccc12 (centres undefined) ?
[reply] no (0)

[ask] Write down the call the test reported for this compound. Item: COc1ccc(/C=C/C(=O)c2ccccc2)cc1OC
[reply] no (0)

[ask] Answer briefly: the call reported for Cc1ccnc(NC(c2ccccc2)c2ccc3cccnc3c2O)c1 (centres undefined) in this assay.
[reply] no (0)

[ask] // return assay outcome for COc1cc(OC)c(/C=C/C(=O)c2c(O)cc(OC)c(C3CCN(C)CC3)c2OC)c(OC)c1
[reply] no (0)

[ask] Record lookup: outcome of this test for C=C(C)[C@@H]1CC[C@]2(C(=O)N3CCN(C)CC3)CC[C@]3(C)[C@H](CC[C@@H]4[C@@]5(C)CC[C@H](O)C(C)(C)[C@@H]5CC[C@]43C)[C@@H]12 ?
[reply] no (0)

[ask] Test call for this compound, please: COC1=CC(c2ccc[nH]2)=N/C1=C\c1[nH]c(C)c(C)c1CCC(=O)OCc1ccccc1
[reply] yes (1)

[ask] How did this test come out for NCCCCCCCCCn1c2c(c3ccccc3c1=O)C(=O)c1ccccc1-2 ?
[reply] no (0)

[ask] State the result this test recorded for COc1ccc2c(c1)C(=O)c1c-2c(OCCN2CCCCC2)nc2ccc(OC)cc12 .
[reply] no (0)

Data credit: PubChem BioAssay (NCI)
